Recorded nH by entry
TESTED_SYSTEM: Somatostatin sst1 (Homo sapiens, UniProt P30872)
Construct: host or cells: CHO-K1
Sequence (P30872 whole entry): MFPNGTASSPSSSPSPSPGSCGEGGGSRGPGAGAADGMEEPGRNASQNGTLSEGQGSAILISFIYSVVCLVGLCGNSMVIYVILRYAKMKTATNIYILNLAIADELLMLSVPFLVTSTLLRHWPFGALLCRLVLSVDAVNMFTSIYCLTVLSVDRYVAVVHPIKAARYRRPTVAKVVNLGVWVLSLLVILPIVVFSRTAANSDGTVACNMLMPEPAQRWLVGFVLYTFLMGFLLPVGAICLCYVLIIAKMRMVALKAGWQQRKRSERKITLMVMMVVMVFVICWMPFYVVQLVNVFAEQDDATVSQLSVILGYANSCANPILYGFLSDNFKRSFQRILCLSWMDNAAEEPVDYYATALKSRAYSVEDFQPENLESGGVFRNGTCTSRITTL
PROTOCOL_DETAILS: Somatostatin sst1 radioligand binding assay
MEASUREMENT_CONDITIONS: Table 4; human
No unit in the answer, please; the number alone is enough.

Recorded results for 5 compounds are shown here.
| COMPOUND | nH |
| --- | --- |
| CN1C(=O)N(CCc2c[nH]c3ccccc23)C(=O)C12CCN(CCCCN)c1cc(Oc3ccc4c(c3)OCO4)ccc12 (stereo not shown) | 1.28 |
| Cc1ccc(Oc2ccc3c(c2)N(CCCCN)CCC32C(=O)N(C)C(=O)N2Cc2c[nH]c3ccccc23)cc1 (stereo not shown) | 0.654 |
| CN1C(=O)N(Cc2c[nH]c3ccccc23)C2(CCN(CCCCN)c3cc(Oc4ccccc4)ccc32)C1=O (stereo not shown) | 0.62 |
| Cc1ccc(Oc2ccc3c(c2)N(CCCCN)CCC32C(=O)N(CCc3c[nH]c4ccccc34)C(=O)N2C)cc1C (stereo not shown) | 0.598 |
| Cc1ccc(Oc2ccc3c(c2)N(CCCCN)CCC32C(=O)N(CCc3c[nH]c4ccccc34)C(=O)N2C)cc1 (stereo not shown) | 1.38 |

Prompt: Fill blank: measured nH of the compound CN1C(=O)N(CCc2c[nH]c3ccccc23)C(=O)C12CCN(CCCCN)c1cc(O)ccc12 (stereo not shown) is ____.
Response: 0.992

Prompt: Fill blank: measured nH of the compound CN1C(=O)N(Cc2c[nH]c3ccccc23)C(=O)C12CCN(C(=O)CCCN)c1cc(Oc3ccccc3)ccc12 (stereo not shown) is ____.
Response: 0.433
